For each of the compounds below, state its inhibition.
test system: Hepatitis C virus NS3 helicase; assay: HCV NS3 helicase inhibitors, primary screen, biochemical, fluorescence polarization, ChemBridge library (AID 687043); settings: NS3h Cy5-dT15 DNA binding, at 100 µM, stronger effect = higher value
Out of some 16,000 compounds screened, about 250 (1.6%) were called active. Many of the other results were omitted from the sample, so actives are more common in it than they were.
Give just the numeric value; % need not be written.

Lookup: Bench note: what inhibition did C=CCN1C(=O)/C(=C\c2cc(Cl)c(O)c(Cl)c2)SC1=S show?
Found: 21.3

Lookup: Bench note: what inhibition did CCOc1ccc(C2(Cc3ccccc3)C(=O)c3ccccc3C2=O)cc1 show?
Found: 5.5

Lookup: Bench note: what inhibition did CCOc1cc(/C=c2\sc3nc4ccccc4n3c2=O)ccc1OC(C)c1ccccc1 (stereo unspecified) show?
Found: 2.5

Lookup: Bench note: what inhibition did COc1ccc(OC)c(N(CC(=O)Nc2cccc(Br)c2)S(C)(=O)=O)c1 show?
Found: 9.1

Lookup: Bench note: what inhibition did O=C(Nc1ccc(Cl)cc1)/C(=C\c1cccc([N+](=O)[O-])c1)NC(=O)c1cccs1 show?
Found: 0.7

Lookup: Bench note: what inhibition did Cc1nc(SCC#N)c(C#N)c(C)c1C show?
Found: 9
